# Measured On: human C5a receptor (CD88) (Homo sapiens)
# Construct: expressed in transfected cells; host or cells: rat basophilic leukemia (RBL) cells, stably transfected
# Protocol Text: C5a induced enzyme (glucosaminidase) release assay in RBL cells expressing the human C5a receptor (Example 28)
# Format: cell-based
# Experimental Setup: inhibition of C5a induced enzyme release, RBL cells with human C5aR; read-out: Activity-range (antagonistic activity, IC50 enzyme release)
Value Type: IC50

Here is how some molecules turned out for IC50.
- COc1ccc(CN(C(=O)Nc2c(C(C)C)ccc(N)c2C(C)C)c2ccc(C(C)C)cc2)cc1: 0.2 to 5 µM
- CCc1ccc(N)c(CC)c1NC(=O)N(Cc1ccc(OC)cc1F)c1ccc(C(C)C)cc1: 0.2 to 5 µM
- COc1ccc2c(c1)C(C(=O)N(Cc1ccc(N(C)C)cc1)c1ccc(C(C)C)cc1)CCC2 (stereo not shown) [compound 12, reference compound]: 0.06 to 0.2 µM

Hello, I would appreciate it if you could give IC50 for each entry below.
1. CCc1c(N)cc(Cl)c(CC)c1NC(=O)N(c1ccc(NC)cc1)C(C)c1ccc2c(c1)ncn2C (stereo not shown)
2. CCc1c(N)cc(Cl)c(CC)c1NC(=O)N(c1ccc(C(C)C)cc1)C1CCOc2ccccc21 (stereo not shown)
3. CCc1ccc(N(C(=O)Nc2c(CC)c(N)cc(Cl)c2CC)C(C[N+](=O)[O-])c2ccccc2)cc1 (stereo not shown)
4. CCc1ccc(N(Cc2cnn(CC)c2)C(=O)Nc2c(CC)c(N)cc(Cl)c2CC)cc1

A:
1. 0.06 to 0.2 µM
2. 0.2 to 5 µM
3. 0.2 to 5 µM
4. 0.2 to 5 µM

====

Assign IC50 to each entry below.
Target sequence: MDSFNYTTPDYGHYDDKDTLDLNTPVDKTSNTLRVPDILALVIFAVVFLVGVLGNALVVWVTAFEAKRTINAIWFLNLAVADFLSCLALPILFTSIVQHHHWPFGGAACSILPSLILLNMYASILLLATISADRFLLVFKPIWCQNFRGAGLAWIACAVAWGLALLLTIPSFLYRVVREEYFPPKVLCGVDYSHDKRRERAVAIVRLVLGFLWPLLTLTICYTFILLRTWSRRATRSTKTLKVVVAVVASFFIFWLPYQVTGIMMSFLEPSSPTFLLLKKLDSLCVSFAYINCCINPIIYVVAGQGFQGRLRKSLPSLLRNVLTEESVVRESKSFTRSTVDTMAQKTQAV
Numbers only, in nM.

- CCc1c(N)cc(Cl)c(CC)c1NC(=O)N(Cc1ccc(Cl)cc1)c1ccc(NC)cc1 [compound 120]: 86.5

Hello, I would appreciate it if you could give IC50 for each entry below.
1. CCc1c(N)cc(Cl)c(CC)c1NC(=O)N(Cc1ccc(Cl)cc1)c1ccc(CC(F)(F)F)cc1 [compound 103]
2. CCc1c(N)cc(Cl)c(CC)c1NC(=O)N(c1ccc(C(C)C)cc1)C1CCc2cc(Cl)ccc21 (stereo not shown) [compound 88]
3. CCc1c(N)cc(Cl)c(CC)c1NC(=O)N(c1ccc(NC)cc1)[C@@H](C)c1ccccc1 [compound 132]

A:
58.6
44
43.4

====

# Measured On: human C5a receptor (CD88) (Homo sapiens, UniProt P21730)
# Construct: expressed in transfected cells; host or cells: rat basophilic leukemia (RBL) cells, stably transfected
# Protocol Text: C5a induced enzyme (glucosaminidase) release assay in RBL cells expressing the human C5a receptor (Example 28)
# Assay type: cell-based
# Experimental Setup: inhibition of C5a induced enzyme release, RBL cells with human C5aR; read-out: Activity-range (antagonistic activity, IC50 enzyme release)
# Procedure: Basophile leukemia cells from rats (RBL), which express the human C5a receptor (CD88), are cultivated in DMEM with 10% fetal calf serum, 100 U/ml penicillin, 100 μg/ml streptomycin and 2 mM glutamin (all constituents are from Biochrome, Berlin) at 37° C. and with 10% CO2 until a confluent layer is obtained. […] The cells are counted and centrifuged (200 g, 10 min). […] The IC50 value is determined by solving the four parameter equation y=((A−D)/(1+(x/C)^B))+D.
Value Type: IC50

Here is how some molecules turned out for IC50.
- CCc1ccc(N)c(CC)c1NC(=O)N(Cc1ccc(OC)cc1)c1ccc(C(C)C)cc1: 200 to 5000 nM
- CCc1c(N)cc(Cl)c(CC)c1NC(=O)N(c1ccc2[nH]ccc2c1)[C@@H](C)c1ccc(Cl)cc1: < 60 nM
- CCc1c(N)cc(Cl)c(CC)c1NC(=O)N(Cc1ccccc1OC)c1ccc(C(C)C)cc1: 200 to 5000 nM
- CCc1ccc(N(Cc2ccc(Br)cc2)C(=O)Nc2c(CC)c(N)cc(Cl)c2CC)cc1: < 60 nM
- CCc1c(N)cc(Cl)c(CC)c1NC(=O)N(Cc1ccc(Cl)cc1)c1cccc2ccccc12: 200 to 5000 nM

Hello, I would appreciate it if you could give IC50 for each entry below.
1. CCc1c(N)cc(Cl)c(CC)c1NC(=O)N(c1ccc(C(C)C)cc1)[C@H]1CCCc2ccccc21
2. CCc1c(N)cc(Cl)c(CC)c1NC(=O)N(Cc1cnc(OC)nc1OC)c1ccc(C(C)C)cc1
3. CCc1ccc(N(C(=O)Nc2c(CC)c(N)cc(Cl)c2CC)C(C)c2ccc(C)nc2)cc1 (centres unmarked)

A:
["60 to 200 nM", "200 to 5000 nM", "60 to 200 nM"]
